Value source: patent US20140242083A1

- Study target: T1, Cynomolgus MCSP D3 (cynomolgus, UniProt Q6UVK1 1582-2224 (human entry), limits assumed)
- T1 construct: Soluble analyte in SPR
- T1 chain: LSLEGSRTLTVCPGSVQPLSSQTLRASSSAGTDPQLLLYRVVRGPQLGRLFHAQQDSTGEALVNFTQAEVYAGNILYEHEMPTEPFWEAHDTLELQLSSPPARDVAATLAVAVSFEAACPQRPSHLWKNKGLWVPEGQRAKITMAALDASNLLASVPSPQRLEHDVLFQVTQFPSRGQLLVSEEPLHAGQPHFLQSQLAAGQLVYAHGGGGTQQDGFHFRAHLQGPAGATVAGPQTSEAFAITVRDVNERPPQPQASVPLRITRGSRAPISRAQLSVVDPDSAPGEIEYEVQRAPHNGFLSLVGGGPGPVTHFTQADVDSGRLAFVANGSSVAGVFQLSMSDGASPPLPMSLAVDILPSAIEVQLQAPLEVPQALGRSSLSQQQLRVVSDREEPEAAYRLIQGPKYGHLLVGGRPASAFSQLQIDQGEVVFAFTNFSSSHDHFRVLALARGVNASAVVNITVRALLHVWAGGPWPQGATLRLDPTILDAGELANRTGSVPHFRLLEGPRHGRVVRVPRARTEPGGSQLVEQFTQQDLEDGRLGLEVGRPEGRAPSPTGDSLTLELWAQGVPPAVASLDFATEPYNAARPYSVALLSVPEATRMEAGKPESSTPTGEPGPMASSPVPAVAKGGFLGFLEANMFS
- Test description: SPR Biacore T200, 25 C, IgG captured on anti-human Fab, MCSP D3 as analyte, 1:1 Langmuir fit
Quantity kind: pKd
Keep in mind that pKd stands for -log10 of concentration in molar terms.

The binder listed as M4-3 (D6) ML2 (antibody, human IgG1, V domains shown) VH: QVQLQESGPGLVKPSQTLSLTCTVSGGSITSGYYWNWIRQHPGKGLEWIGYITFDGKNNYNPSLKSRVTISRDTSKNQFSLKLSSVTAADTAVYYCADFDYWGQGTLVTVSS VL: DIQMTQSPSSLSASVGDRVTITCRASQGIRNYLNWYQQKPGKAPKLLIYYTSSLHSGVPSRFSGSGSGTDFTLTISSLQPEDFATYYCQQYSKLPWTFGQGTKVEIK shows pKd equal to 7.61

The binder listed as M4-3 ML2 (C5) (antibody, human IgG1, V domains shown) VH: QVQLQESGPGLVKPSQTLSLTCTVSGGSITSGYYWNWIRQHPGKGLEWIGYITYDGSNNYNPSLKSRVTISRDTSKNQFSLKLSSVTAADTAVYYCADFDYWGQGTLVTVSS VL: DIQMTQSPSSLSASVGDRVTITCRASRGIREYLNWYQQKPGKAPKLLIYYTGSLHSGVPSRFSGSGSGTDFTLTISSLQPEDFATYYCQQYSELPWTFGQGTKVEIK shows pKd equal to 8.24

The binder listed as M4-3 (C1) ML2 (antibody, human IgG1, V domains shown) VH: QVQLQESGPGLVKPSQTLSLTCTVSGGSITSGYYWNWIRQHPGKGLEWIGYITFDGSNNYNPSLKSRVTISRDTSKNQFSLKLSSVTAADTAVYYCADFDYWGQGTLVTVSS VL: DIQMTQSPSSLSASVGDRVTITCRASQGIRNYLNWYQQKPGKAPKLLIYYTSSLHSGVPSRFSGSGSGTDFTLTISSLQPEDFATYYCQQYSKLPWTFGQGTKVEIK shows pKd equal to 8.01
